# method description: chemical genetic growth profiling, strain panel (AID 1159580);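 also: tested at 20 µM; growth read once vehicle control cultures reached saturation at 30 °C; 1 = growth at the plate median or of vehicle wells; lower values mean less growth of the strain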
# run conditions: S. cerevisiae deletion strains, growth OD, locus YER016W, strain bim1, active compounds read low
Screen size: about 5,500 compounds; about 2,000 (36%) were called active. Not shown: some 18% with an inconclusive outcome. This is one part of the list.
test readout: normalized growth
Numbers only.

Known results for compounds:
compound	normalized growth
CC(C)c1c(O)c(-c2cc3c(c(C(C)C)c2O)CCC2C(C)(C)CCC[C@]32C)cc2c1CCC1C(C)(C)CCC[C@]21C (stereo not given in full)	0.972
Cc1cc(C2CCCCC2)n(O)c(=O)c1	0.0682
CC(=O)Oc1ccc2c(c1C(C)C)CCC1C(C)(C)CCC[C@]21C (stereo not given in full)	1.02
CCC1OC(=O)[C@H](C)C(=O)[C@H](C)[C@@H](OC2O[C@H](C)C[C@H](N(C)C)[C@H]2O)[C@](C)(OC)C2(CCCn3cnc(-c4cccnc4)c3)C[C@@H](C)C(=O)[C@H](C)[C@H]3N(C2)C(=O)O[C@]13C (stereo not given in full)	0.992
COC1=CC(=O)C(O)=C/C1=C\C=C\c1ccccc1	0.0792

Would you mind giving normalized growth for every compound in the list below?
1. Cc1ccccc1OCC(O)CO (stereo not given)
2. COC1=CC(=O)C(C(=O)c2ccccc2)=CC1=O

1: 0.988; 2: 0.974
